Hello, the source for this data is ChEMBL document CHEMBL3860032, in case you need it.

// reported Ki for each item listed
target: Proteasome Macropain subunit MB1 (Homo sapiens, UniProt P28074); test: Competitive inhibition of chymotrypsin-like activity of human 20S proteasome using Suc-Leu-Leu-Val-Tyr-AMC as substrate measured for 10 mins by fluorescence assay
Sequence (P28074 whole entry): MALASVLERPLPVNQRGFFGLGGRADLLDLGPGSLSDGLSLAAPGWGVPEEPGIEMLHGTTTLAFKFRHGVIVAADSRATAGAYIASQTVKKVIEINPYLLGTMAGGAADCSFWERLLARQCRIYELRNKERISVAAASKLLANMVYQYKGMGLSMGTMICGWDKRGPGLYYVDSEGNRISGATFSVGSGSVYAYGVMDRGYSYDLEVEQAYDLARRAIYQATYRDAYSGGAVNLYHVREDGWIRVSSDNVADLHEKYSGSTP
Residues, ends and D or L forms follow the SMILES beside them. *: point of attachment. Cbz = O=C(OCc1ccccc1)*; NHNH2 = NN*
property-measured: Ki (µM)

INSERT INTO results (compound, unit_tag, assay_value) VALUES
  ('CC(C)C[C@H](NC(=O)[C@H](CO)NC(=O)OCc1ccccc1)C(=O)N[C@@H](Cc1ccc(O)cc1)C(=O)NN (Cbz-Ser-Leu-Tyr-NHNH2)', 'µM', 11),
  ('COC(=O)[C@H](Cc1ccc(O)cc1)NC(=O)[C@H](CC(C)C)NC(=O)[C@H](CO)NC(=O)OCc1ccccc1 (Cbz-Ser-Leu-Tyr-OMe)', 'µM', 4.7),
  ('CN/C(=N\CCSCc1ccc2ccccc2n1)NS(=O)(=O)c1ccccc1', 'µM', 2.12),
  ('CC(C)CC(NC(=O)C(CO)NC(=O)OCc1ccccc1)C(=O)NC(Cc1ccc(O)cc1)C(N)=O (stereo not drawn) (Cbz-Ser-Leu-Tyr-NH2; configuration not given here)', 'µM', 2.18),
  ('COC(=O)[C@H](CO)NC(=O)[C@H](CC(C)C)NC(=O)[C@H](CC(C)C)NC(=O)OCc1ccccc1 (Cbz-Leu-Leu-Ser-OMe)', 'µM', 0.42),
  ('COC(=O)[C@H](CC(C)C)NC(=O)[C@H](Cc1ccccc1)NC(=O)[C@H](CO)NC(=O)OCc1ccccc1 (Cbz-Ser-Phe-Leu-OMe)', 'µM', 10.3);

----------
target: Proteasome Macropain subunit (Homo sapiens); assay: Inhibition of trypsin-like activity of human 20S proteasome at 50 uM using Boc-Leu-Arg-Arg-AMC as substrate measured for 10 mins by fluorescence assay relative to control
Non-standard residues stand in square brackets, D forms with d. Residues, ends and D or L forms follow the SMILES beside them. *: point of attachment. Nva = CCC[C@H](N)C(=O)O; Cbz = O=C(OCc1ccccc1)*; NHNH2 = NN*
List of inhibition values.
property-measured: inhibition

INSERT INTO results (compound, target_of_assay, property_measured, assay_value) VALUES
  ('CCC[C@H](NC(=O)OCc1ccccc1)C(=O)N[C@@H](Cc1ccc(O)cc1)C(N)=O (Cbz-[Nva]-Tyr-NH2)', 'Proteasome Macropain subunit (Homo sapiens)', 'inhibition', '33%'),
  ('COC(=O)[C@H](CC(C)C)NC(=O)[C@H](CC(N)=O)NC(=O)[C@@H](NC(=O)OCc1ccccc1)C(C)C (Cbz-Val-Asn-Leu-OMe)', 'Proteasome Macropain subunit (Homo sapiens)', 'inhibition', '32%'),
  ('CC(C)C[C@H](NC(=O)[C@H](CO)NC(=O)OCc1ccccc1)C(=O)N[C@@H](Cc1ccc(O)cc1)C(=O)NN (Cbz-Ser-Leu-Tyr-NHNH2)', 'Proteasome Macropain subunit (Homo sapiens)', 'inhibition', '26%'),
  ('O=C(NCc1ccccc1)C(O)C(O)C(O)C(O)CO (stereo not given)', 'Proteasome Macropain subunit (Homo sapiens)', 'inhibition', '2%'),
  ('CC(Cc1ccccc1)NC(=O)C(O)C(O)C(O)C(O)CCO (stereo not given)', 'Proteasome Macropain subunit (Homo sapiens)', 'inhibition', '6%');
